Source listed as ChEMBL document CHEMBL3797039.

- assayed_system: Apoptosis regulator Bcl-2 (Homo sapiens, UniProt P10415)
- Sequence (P10415 whole entry): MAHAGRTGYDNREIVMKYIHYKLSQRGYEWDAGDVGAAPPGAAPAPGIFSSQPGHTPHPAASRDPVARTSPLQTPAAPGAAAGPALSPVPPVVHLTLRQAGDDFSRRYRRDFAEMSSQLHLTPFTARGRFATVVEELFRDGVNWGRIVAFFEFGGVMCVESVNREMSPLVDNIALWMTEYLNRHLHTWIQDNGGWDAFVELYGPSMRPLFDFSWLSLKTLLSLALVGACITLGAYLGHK
Quick list: Ki per entry.
Numeric answer only, unit µM assumed.

The following compounds have reported results that may help.
structure_smiles | unit_of_measure | Ki
CC(C)Oc1ccc(-c2cc(C(=O)O)nn2-c2ccccc2)cc1 | µM | 7
CCOc1ccc(-c2c(NC(=O)c3ccc(OCC(C)C)cc3)c(C(=O)O)nn2-c2ccc(Oc3ccccc3)cc2)cc1 | µM | 1.04
CCOc1ccc(-c2cc(C(=O)O)nn2-c2ccc(Oc3ccccc3)cc2)cc1 | µM | 0.694
CC(C)c1ccc(-n2nc(C(=O)O)cc2-c2ccc(OCc3ccccc3)cc2)cc1 | µM | 0.385

# context switch: different compound, same Ki
Quickly give me recorded Ki for COC(=O)c1nn(-c2ccc(Oc3ccccc3)cc2)c(-c2ccc(OC(C)C)cc2)c1NC(=O)c1ccc(OC(C)C)cc1
5.16

====

- assayed_system: E3 ubiquitin-protein ligase Mdm2 (Homo sapiens)
- Sequence (Q00987 whole entry): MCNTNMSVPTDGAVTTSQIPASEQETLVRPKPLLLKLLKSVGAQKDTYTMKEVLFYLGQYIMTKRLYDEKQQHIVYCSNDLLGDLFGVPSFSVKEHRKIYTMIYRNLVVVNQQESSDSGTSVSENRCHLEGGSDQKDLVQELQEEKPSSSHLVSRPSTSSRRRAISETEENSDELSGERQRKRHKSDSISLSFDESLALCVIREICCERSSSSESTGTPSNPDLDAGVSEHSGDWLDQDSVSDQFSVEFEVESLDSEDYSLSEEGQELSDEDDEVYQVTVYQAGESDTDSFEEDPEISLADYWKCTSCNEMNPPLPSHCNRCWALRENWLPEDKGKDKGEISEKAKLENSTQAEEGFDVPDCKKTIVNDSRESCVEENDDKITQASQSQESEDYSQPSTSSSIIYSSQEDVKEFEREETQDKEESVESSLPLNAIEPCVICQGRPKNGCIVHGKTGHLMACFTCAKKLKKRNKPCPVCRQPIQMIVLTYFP
property_measured: pKd
The quantity pKd is defined as the negative base-10 logarithm of the molar concentration.

Specify pKd for CC(C)Oc1ccc(C(=O)Nc2c(C(=O)O)nn(-c3ccc(Oc4ccccc4)cc3)c2-c2ccc(OC(C)C)cc2)cc1 and stop.
6.33

====

- assayed_system: Induced myeloid leukemia cell differentiation protein Mcl-1 (Homo sapiens, UniProt Q07820)
- Sequence (Q07820 whole entry): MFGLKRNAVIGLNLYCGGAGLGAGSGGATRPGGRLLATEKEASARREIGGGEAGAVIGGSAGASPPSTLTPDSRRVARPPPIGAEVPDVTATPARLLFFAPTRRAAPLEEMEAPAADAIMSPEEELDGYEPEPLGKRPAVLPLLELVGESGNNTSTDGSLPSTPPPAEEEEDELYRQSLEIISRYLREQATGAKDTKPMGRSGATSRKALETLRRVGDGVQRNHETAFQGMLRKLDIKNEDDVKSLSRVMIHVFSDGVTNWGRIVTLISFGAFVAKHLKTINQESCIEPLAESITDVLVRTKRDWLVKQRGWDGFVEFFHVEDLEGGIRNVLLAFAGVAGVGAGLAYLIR
- assay: Binding affinity to N-terminal 8x His-tagged MCl-1 (unknown origin) expressed in Escherichia coli BL21 (DE3) by isothermal titration microcalorimetric method
property_measured: Kd (nM)
Entry rule: numbers only, all in nM.

Given CC(C)Oc1ccc(C(=O)Nc2c(C(=O)O)nn(-c3ccc(Oc4ccccc4)cc3)c2-c2ccc(OC(C)C)cc2)cc1 , respond with its Kd.
265

====

- assayed_system: E3 ubiquitin-protein ligase Mdm2 (Homo sapiens)
pKi: −log10 of the molar value.
Threshold rule: pKi greater than or equal to 5 is 1 (yes); below that, 0 (no).

molecule | assayed_system | category
COC(=O)c1nn(-c2ccc(Oc3ccccc3)cc2)c(-c2ccc(OC(C)C)cc2)c1NC(=O)c1ccc(OC(C)C)cc1 | E3 ubiquitin-protein ligase Mdm2 (Homo sapiens) | 1 (yes)
CC(C)Oc1ccc(C(=O)Nc2c(C(=O)O)nn(-c3ccc(Oc4ccccc4)cc3)c2-c2ccc(OCc3ccccc3)cc2)cc1 | E3 ubiquitin-protein ligase Mdm2 (Homo sapiens) | 1 (yes)
O=C(O)c1cc(-c2ccc(OCc3ccccc3)cc2)n(-c2ccccc2)n1 | E3 ubiquitin-protein ligase Mdm2 (Homo sapiens) | 0 (no)
CC(C)Oc1ccc(C(=O)Nc2c(C(=O)O)nn(-c3ccc(Oc4ccccc4)cc3)c2-c2ccc(OC(C)C)cc2)cc1 | E3 ubiquitin-protein ligase Mdm2 (Homo sapiens) | 1 (yes)

State whether the measured pKi reaches 5, counting equality as reaching it, for Cc1cc2c(C(C)C)c(O)c(O)c(C=O)c2c(O)c1-c1c(C)cc2c(C(C)C)c(O)c(O)c(C=O)c2c1O [GOSSYPOL]
0 (no)

Is it the case that Cc1ccc(/N=c2\c3ccc(C)cc3n(C(=O)c3ccc(C(C)(C)C)cc3)c3c(O)c(O)c(O)cc23)cc1 has pKi reaching or exceeding 5?
0 (no)

Identify whether the reported pKi of the following molecule is 5 or greater: CCOc1ccc(-c2c(NC(=O)c3ccc(OC(C)C)cc3)c(C(=O)O)nn2-c2ccc(Oc3ccccc3)cc2)cc1
1 (yes)

====

- assayed_system: Induced myeloid leukemia cell differentiation protein Mcl-1 (Homo sapiens)
- assay: Displacement of FAM-Bid peptide from N-terminal 8x His-tagged MCl-1 (unknown origin) expressed in Escherichia coli BL21 (DE3) after 30 mins by fluorescence polarization assay
property_measured: Ki (nM)
# output: bare number, implied unit nM

Take a look at these entries with their results.
molecule | Ki [nM]
CC(C)Oc1ccc(-c2cc(C(=O)O)nn2-c2ccc(C(C)C)cc2)cc1 | 2390
CC(C)Oc1ccc(-c2cc(C(=O)O)nn2-c2ccc(Oc3ccccc3)cc2)cc1 | 371

# return recorded Ki for entry Cc1ccc(/N=c2\c3ccc(C)cc3n(C(=O)c3ccc(C(C)(C)C)cc3)c3c(O)c(O)c(O)cc23)cc1
247

Given CC(C)Oc1ccc(C(=O)Nc2c(C(=O)O)nn(-c3ccc(Oc4ccccc4)cc3)c2-c2ccc(OC(C)C)cc2)cc1 , respond with its Ki.
161

Please indicate Ki recorded for COC(=O)c1nn(-c2ccc(Oc3ccccc3)cc2)c(-c2ccc(OC(C)C)cc2)c1NC(=O)c1ccc(OC(C)C)cc1
4520

Give the reported value of Ki for this record: CC(C)c1ccc(-n2nc(C(=O)O)cc2-c2ccc(OCc3ccccc3)cc2)cc1
226

Using known records, supply Ki for CC(C)Oc1ccc(C(=O)Nc2c(C(=O)O)nn(-c3ccc(C(C)C)cc3)c2-c2ccc(OCc3ccccc3)cc2)cc1
2600

====

- assayed_system: Apoptosis regulator Bcl-2 (Homo sapiens, UniProt P10415)
property_measured: Ki

Below: 2 compounds and their reported Ki.
structure_smiles | result_value
O=C(O)c1cc(-c2ccc(OCc3ccccc3)cc2)n(-c2ccccc2)n1 | > 10 µM
CC(C)Oc1ccc(C(=O)Nc2c(C(=O)O)nn(-c3ccc(C(C)C)cc3)c2-c2ccc(OCc3ccccc3)cc2)cc1 | > 10 µM

Kindly consider the entry below.
Enter recorded Ki with Apoptosis regulator Bcl-2 (Homo sapiens, UniProt P10415) for COc1ccc(C2=N[C@@H](c3ccc(Cl)cc3)[C@@H](c3ccc(Cl)cc3)N2C(=O)N2CCNC(=O)C2)c(OC(C)C)c1 here.
> 10 µM

====

- assayed_system: Induced myeloid leukemia cell differentiation protein Mcl-1 (Homo sapiens, UniProt Q07820)
- assay: Displacement of FAM-Bid peptide from N-terminal 8x His-tagged MCl-1 (unknown origin) expressed in Escherichia coli BL21 (DE3) after 30 mins by fluorescence polarization assay
Entries annotated with measured pKi
Scale: negative log10 of molar concentration, which is what pKi denotes.

// known answers, use as guide
structure_smiles | assayed_system | result_value
CCOc1ccc(-c2c(NC(=O)c3ccc(OCC(C)C)cc3)c(C(=O)O)nn2-c2ccc(Oc3ccccc3)cc2)cc1 | Induced myeloid leukemia cell differentiation protein Mcl-1 (Homo sapiens, UniProt Q07820) | 6.41
CC(C)COc1ccc(C(=O)Nc2c(C(=O)O)nn(-c3ccc(Oc4ccccc4)cc3)c2-c2ccc(OC(C)C)cc2)cc1 | Induced myeloid leukemia cell differentiation protein Mcl-1 (Homo sapiens, UniProt Q07820) | 6.14

Determine its reported pKi: CCOc1ccc(-c2cc(C(=O)O)nn2-c2ccc(Oc3ccccc3)cc2)cc1
6.35

Give pKi for the following compound: Cc1cc2c(C(C)C)c(O)c(O)c(C=O)c2c(O)c1-c1c(C)cc2c(C(C)C)c(O)c(O)c(C=O)c2c1O
6.59

Assign pKi to the following record: CCOc1ccc(-c2c(NC(=O)c3ccc(OC(C)C)cc3)c(C(=O)O)nn2-c2ccc(Oc3ccccc3)cc2)cc1
7.09

Give recorded pKi. CCOc1ccc(-c2cc(C(=O)O)nn2-c2ccccc2)cc1
5.42
